Value source: the RNAGym collection of RNA variant scans (doi:10.7554/elife.80360)

B1: CPEB3 Ribozyme (parent)
chain: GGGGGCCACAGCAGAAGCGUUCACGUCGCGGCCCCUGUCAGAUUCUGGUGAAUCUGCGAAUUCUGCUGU

# Variants of: B1
# method notes: self-cleavage, relative activity (ratio to wild type); higher = more cleavage; co-transcriptional
// map self-cleavage to label using low end: < 0.3; middle: ≥ 0.3 and < 0.8; high end: ≥ 0.8

# count of solved cases: 5
### Prompt Please indicate the class for G37U U64C based on its self-cleavage.
### Response low end

### Prompt A15U G58U ?
### Response high end

### Prompt Then what about the variant A42U A60G ?
### Response middle

### Prompt Lookup C7G C18G
### Response low end

### Prompt Also need G2U U20C , thanks.
### Response low end

New cases:
### Prompt GET /class?item= U38C A42G
### Response high end

### Prompt What would you report for C34G A51C ?
### Response middle

### Prompt Field entry: A16G G48A
### Response high end

### Prompt Also C39U U69C ?
### Response high end
